- Test system: ATP;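 also: ATP exposure 15 min at 22 °C before imaging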
- experiment.notes: switch fluorescence ratio, 500 uM ATP over buffer (Cy3 cluster intensity, sum of 5 cycles each) (fold (ratio)); higher = stronger signal-on switching upon ATP binding; sequences stand for … in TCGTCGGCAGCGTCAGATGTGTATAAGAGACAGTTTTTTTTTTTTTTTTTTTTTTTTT…TC
- condition.summary: aptamer strand: ATP DNA aptamer (quencher-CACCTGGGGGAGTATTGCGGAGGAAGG + anchor), 100 nM annealed; ATP concentration: 500 uM
property.name: switch fluorescence ratio
Answers are plain numbers.

In [3]: df
Out[3]:
   sequence_code              property_name  recorded_value
0     GTTGCTGATT  switch fluorescence ratio            1.02

Could you report switch fluorescence ratio for every entry in the following list?
1. ATGTGGTCAT
2. GATGTATGTG
3. TCCTAACTTG
4. GAAAGGGGTA
5. TTTGACTTAG
6. TCGGGTCCAT

1: 1.01; 2: 1.02; 3: 1.01; 4: 1.01; 5: 1.02; 6: 1
